Origin of values: PubChem BioAssay (NCI)

system: M14 melanoma; experiment: NCI-60 one-dose screen, 48 h; details: 10 µM unless noted
The panel holds about 83,000 compounds, 20% with a hit somewhere; the sample as a whole holds those more often. Calls of active or inactive are those of the source. How the source made its calls: active means growth percent below 10; inactive means the rest.
Respond only with the outcome that fits, drawn from class 1 (active), class 0 (inactive)

Ask: // outcome(item) with item = CN(C)CCOc1nc2c3ccncc3cc(-c3cccc(Cl)c3)c2c2cnccc12
Result: class 0

Next:
Ask: // outcome(item) with item = O=C(Cn1nncc1CN1C(=O)CSC1=O)Nc1ccc(F)cc1
Result: class 0

Ask: // outcome(item) with item = COc1c(C(=O)/C=C/c2ccc(C)o2)c(O)cc2occc12
Result: class 0

Ask: // outcome(item) with item = O=C(OCc1ccc2c(Cl)cc(Cl)c(O)c2n1)c1cc2ccccc2[nH]1
Result: class 1

Ask: // outcome(item) with item = CC(C)NC(=O)OCC#CCOC(=O)NC(C)C
Result: class 0

Ask: // outcome(item) with item = F
Result: class 1

Ask: // outcome(item) with item = CC(=O)Nc1ccc(Cl)cc1Cl
Result: class 0

Ask: // outcome(item) with item = CCc1ccc2c(c1)N(CCO)C1=C(C(=O)OC1)C2c1cccc(Cl)c1 (centres undefined)
Result: class 1

Ask: // outcome(item) with item = FC(F)(F)c1ccc(/C=N/Nc2nnc3n2N=C(c2ccc(Cl)cc2)CS3)cc1
Result: class 0

====

tested on: HT29 colon; assay: NCI-60 one-dose screen, 48 h; settings: 10 µM unless noted
The panel holds about 83,000 compounds, 20% with a hit somewhere; the sample as a whole holds those more often. The source made the active and inactive calls. How the source made its calls: active means growth percent below 10; inactive means the rest.
Respond only with the outcome that fits, drawn from active, inactive

// known answers, use as guide
Ask: // outcome(item) with item = O=C(Nc1ccc(Oc2ccc(NC(=O)Nc3ccccc3Cl)cc2)cc1)Nc1ccccc1Cl
Result: inactive

Ask: // outcome(item) with item = O=C(Nc1ccc2ncnc(Nc3ccc(F)c(Cl)c3)c2c1)c1cccs1
Result: inactive

Ask: // outcome(item) with item = CCCCc1n(Cc2ccc3ccccc3n2)cc[n+]1Cc1ccc2ccccc2n1
Result: active

Ask: // outcome(item) with item = Fc1ccc(-c2nnc(N3CCOCC3)c3ccccc23)cc1
Result: inactive

Ask: // outcome(item) with item = CCc1ccc2c(c1)N(CCO)C1=C(C(=O)OC1)C2c1cccc(Br)c1 (stereo unspecified)
Result: active

Next:
Ask: // outcome(item) with item = COc1cc2c(cc1I)-c1c(cc(OC)c(OC)c1OC)CC[C@@H]2NC(C)=O
Result: active

====

system: NCI/ADR-RES ovarian; experiment: NCI-60 one-dose screen, 48 h (100 = growth as untreated, 0 = no growth, -100 = all killed); conditions: 10 µM unless noted
This is part of a sample that, as a whole, favours compounds with a hit. Of some 83,000 tested, about 20% had one in any assay.
growth less than 80% is Met; growth greater than or equal to 80% is Not met.

// known answers, use as guide
Ask: Dear reviewer, please state whether COc1ccc(/C(=C\c2cc(OC)c(OC)c(OC)c2)C(=O)Nc2nc3ccc(Cl)cc3s2)cc1 has growth strictly beneath 80%.
Result: Not met

Ask: Dear reviewer, please state whether CC(C)c1[nH]ncc1-c1nc2ccc3[nH]ncc3c2c2c1CCCC2 has growth strictly beneath 80%.
Result: Met

Ask: Dear reviewer, please state whether C=C(C)c1ccc(/C=N/NC(N)=S)cc1 has growth strictly beneath 80%.
Result: Not met

Ask: Dear reviewer, please state whether O=C(O)c1cn(-c2ccccc2)nc1-c1ccc(O)cc1 has growth strictly beneath 80%.
Result: Not met

Ask: Dear reviewer, please state whether OC(c1cc2c(Cl)cc(Cl)cc2c2cc(C(F)(F)F)ccc12)C1CCCCN1 (configuration not stated) has growth strictly beneath 80%.
Result: Met

Next:
Ask: Dear reviewer, please state whether COc1ccc(-c2nnc(SCC(=O)Nc3ccc(C(=O)/C=C/c4ccc(Cl)cc4)cc3)n2-c2ccccc2)cc1 has growth strictly beneath 80%.
Result: Not met

Ask: Dear reviewer, please state whether c1ccc(C2=Nc3ccccc3SC2)cc1 has growth strictly beneath 80%.
Result: Not met

Ask: Dear reviewer, please state whether COc1cc2c(cc1OCCCOc1cc3c(cc1OC)C(=O)N1CCC[C@H]1C=N3)C=CC(C)(C)O2 has growth strictly beneath 80%.
Result: Not met
